targetUnderTest: wild-type EGFR (Homo sapiens)
Sequence (P00533 25-1210): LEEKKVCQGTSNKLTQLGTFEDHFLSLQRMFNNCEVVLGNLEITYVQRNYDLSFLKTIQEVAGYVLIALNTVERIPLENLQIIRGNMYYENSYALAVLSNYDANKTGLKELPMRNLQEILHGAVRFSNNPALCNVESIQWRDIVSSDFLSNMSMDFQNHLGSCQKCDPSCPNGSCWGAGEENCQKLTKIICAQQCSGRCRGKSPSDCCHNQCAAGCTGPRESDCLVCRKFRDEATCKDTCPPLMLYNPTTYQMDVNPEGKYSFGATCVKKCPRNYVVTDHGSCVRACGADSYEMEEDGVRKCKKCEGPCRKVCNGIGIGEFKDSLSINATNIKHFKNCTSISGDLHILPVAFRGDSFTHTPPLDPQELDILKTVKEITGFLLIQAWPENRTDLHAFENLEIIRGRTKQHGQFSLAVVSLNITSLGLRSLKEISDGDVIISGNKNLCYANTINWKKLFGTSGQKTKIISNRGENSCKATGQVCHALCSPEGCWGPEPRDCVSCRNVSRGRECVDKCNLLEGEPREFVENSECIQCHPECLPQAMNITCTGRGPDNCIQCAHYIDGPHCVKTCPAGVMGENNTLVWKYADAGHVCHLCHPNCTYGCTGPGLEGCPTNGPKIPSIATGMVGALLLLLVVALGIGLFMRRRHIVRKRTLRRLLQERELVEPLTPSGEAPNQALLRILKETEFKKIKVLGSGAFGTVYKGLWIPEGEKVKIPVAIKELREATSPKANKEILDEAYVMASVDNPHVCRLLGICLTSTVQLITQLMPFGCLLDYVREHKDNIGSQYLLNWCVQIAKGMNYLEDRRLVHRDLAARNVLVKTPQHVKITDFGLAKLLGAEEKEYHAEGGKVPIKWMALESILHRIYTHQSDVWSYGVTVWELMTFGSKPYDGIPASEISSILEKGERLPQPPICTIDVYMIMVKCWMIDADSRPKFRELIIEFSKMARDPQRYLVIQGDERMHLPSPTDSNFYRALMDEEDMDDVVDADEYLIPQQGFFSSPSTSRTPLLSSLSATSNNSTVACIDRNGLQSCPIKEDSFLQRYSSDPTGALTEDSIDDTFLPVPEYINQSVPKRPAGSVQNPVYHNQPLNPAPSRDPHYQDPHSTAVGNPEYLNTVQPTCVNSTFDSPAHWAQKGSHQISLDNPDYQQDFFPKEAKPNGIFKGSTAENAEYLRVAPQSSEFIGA
testProtocol: EGFR kinase assay (ELISA)
conditionLabel: 3000 nM; duplicate wells, calculated from A450; 3 µM
measuredEndpoint: Inhibition

INSERT INTO assay_data (molecule, targetundertest, endpointresult) VALUES
  ('COCCOc1cc2ncnc(Nc3cccc(-c4cn(-c5ccccc5Cl)nn4)c3)c2cc1OCCOC [e8]', 'wild-type EGFR (Homo sapiens)', 40.5263);

[a] COCCOc1cc2ncnc(Nc3cccc(-c4cn(-c5ccccc5F)nn4)c3)c2cc1OCCOC [e6]
[b] COCCOc1cc2ncnc(Nc3cccc(-c4cn(-c5ccccc5Br)nn4)c3)c2cc1OCCOC [e9]
[c] COCCOc1cc2ncnc(Nc3cccc(-c4cn(-c5ccc(F)cc5)nn4)c3)c2cc1OCCOC [e7]
In: I would appreciate it if you could sort these 3 molecules by Inhibition, starting from the smallest number. State the ranking by listing the labels in the requested order.
Out: c, b, a

###

In this section we review reported melting point values for a set of molecules.

Answered examples (5):
INSERT INTO measurements (molecule, endpointresult) VALUES
  ('COCCOc1cc2ncnc(Nc3cccc(-c4cn(-c5ccccc5C(F)(F)F)nn4)c3)c2cc1OCCOC [e16]', '113 to 116 °C'),
  ('COCCOc1cc2ncnc(Nc3cccc(-c4cn(-c5ccc(OC)cc5OC)nn4)c3)c2cc1OCCOC [e17]', '85 to 88 °C'),
  ('COCCOc1cc2ncnc(Nc3cccc(-c4cn(CCc5ccccc5)nn4)c3)c2cc1OCCOC [e20]', '109 to 112 °C'),
  ('COCCOc1cc2ncnc(Nc3cccc(-c4cn(-c5ccccc5Cl)nn4)c3)c2cc1OCCOC [e8]', '131 to 134 °C'),
  ('COCCOc1cc2ncnc(Nc3cccc(-c4cn(-c5ccc(C)cc5O)nn4)c3)c2cc1OCCOC [e18]', '100 to 103 °C');

In: # return recorded melting point for input COCCOc1cc2ncnc(Nc3cccc(-c4cn(-c5ccc(Br)cc5)nn4)c3)c2cc1OCCOC [e10]
Out: 105 to 108 °C

In: # return recorded melting point for input CCOc1cccc(-n2cc(-c3cccc(Nc4ncnc5cc(OCCOC)c(OCCOC)cc45)c3)nn2)c1 [e14]
Out: 110 to 114 °C

In: # return recorded melting point for input COCCOc1cc2ncnc(Nc3cccc(-c4cn(-c5ccccc5OC)nn4)c3)c2cc1OCCOC [e11]
Out: 87 to 90 °C

In: # return recorded melting point for input COCCOc1cc2ncnc(Nc3cccc(-c4cn(-c5ccccc5Br)nn4)c3)c2cc1OCCOC [e9]
Out: 93 to 97 °C

###

Tested on: H1975 cells
testProtocol: CCK-8 antiproliferation assay, H1975
conditionLabel: Homo sapiens, NCI-H1975, read-out: Inhibitory efficacy, H1975 cells; 16uM; given as fraction; Repeat 1-3
measuredEndpoint: inhibition at 16 µM (%)
Could you give me the number in %? Just the number is fine.

Answered examples (3):
INSERT INTO measurements (compound, readoutunits, endpointresult) VALUES
  ('COCCOc1cc2ncnc(Nc3cccc(-c4cn(Cc5ccccc5I)nn4)c3)c2cc1OCCOC [e2]', '%', 48.4),
  ('C#Cc1cccc(Nc2ncnc3cc(OCCOC)c(OCCOC)cc23)c1 [Erlotinib, reference compound]', '%', 55.9),
  ('COCCOc1cc2ncnc(Nc3cccc(-c4cn(-c5ccc(C)cc5O)nn4)c3)c2cc1OCCOC', '%', 55.4);

Alright, here's another compound for you.
In: Provide measured inhibition at 16 µM on H1975 cells for `COCCOc1cc2ncnc(Nc3cccc(-c4cn(-c5cccc([N+](=O)[O-])c5)nn4)c3)c2cc1OCCOC` please.
Out: 21
